biological target: EGFR (Homo sapiens, UniProt P00533); construct: purchased Carna Biosciences, Inc; host or cells: insect cell expression system; assay: Enzyme inhibitory activity on EGFR (time resolution fluorescence, biotinylated poly-Glu-Tyr substrate); format: biochemical; conditions: enzyme reaction at room temperature for 60 minutes
Sequence (P00533 25-1210): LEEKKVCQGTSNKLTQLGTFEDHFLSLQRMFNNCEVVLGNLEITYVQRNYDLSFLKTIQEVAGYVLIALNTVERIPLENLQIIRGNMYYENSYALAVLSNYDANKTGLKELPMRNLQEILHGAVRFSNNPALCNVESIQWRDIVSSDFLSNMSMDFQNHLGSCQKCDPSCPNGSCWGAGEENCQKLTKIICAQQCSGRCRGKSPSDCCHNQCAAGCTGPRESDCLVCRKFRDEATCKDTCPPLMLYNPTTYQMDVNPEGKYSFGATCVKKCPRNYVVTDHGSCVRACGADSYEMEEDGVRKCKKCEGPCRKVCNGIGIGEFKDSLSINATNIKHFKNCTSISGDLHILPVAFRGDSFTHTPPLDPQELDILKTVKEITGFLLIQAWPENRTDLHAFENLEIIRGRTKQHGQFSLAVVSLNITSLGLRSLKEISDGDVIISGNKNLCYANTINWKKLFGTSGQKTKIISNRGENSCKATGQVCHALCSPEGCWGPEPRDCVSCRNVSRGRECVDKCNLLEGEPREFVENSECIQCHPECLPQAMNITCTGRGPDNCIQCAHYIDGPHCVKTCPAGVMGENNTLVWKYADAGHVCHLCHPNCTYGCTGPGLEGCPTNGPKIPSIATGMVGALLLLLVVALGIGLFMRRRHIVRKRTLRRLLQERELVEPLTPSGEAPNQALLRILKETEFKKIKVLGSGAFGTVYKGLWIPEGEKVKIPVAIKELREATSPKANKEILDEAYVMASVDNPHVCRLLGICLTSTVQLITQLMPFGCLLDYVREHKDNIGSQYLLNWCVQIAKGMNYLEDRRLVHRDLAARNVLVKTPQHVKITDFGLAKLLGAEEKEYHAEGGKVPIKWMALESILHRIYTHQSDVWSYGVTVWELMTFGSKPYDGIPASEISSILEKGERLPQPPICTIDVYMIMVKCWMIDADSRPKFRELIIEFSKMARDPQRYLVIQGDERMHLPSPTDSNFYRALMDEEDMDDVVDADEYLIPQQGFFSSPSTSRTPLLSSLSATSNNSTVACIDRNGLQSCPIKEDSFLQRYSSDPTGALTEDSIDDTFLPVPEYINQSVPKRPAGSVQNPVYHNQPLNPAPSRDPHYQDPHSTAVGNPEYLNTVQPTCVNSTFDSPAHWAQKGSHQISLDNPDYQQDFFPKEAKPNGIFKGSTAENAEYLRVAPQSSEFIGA
// reported IC50 per item
measurement_label: IC50 (nM)

1. CC#C/C(=N\OCCN1CC[C@@H](OC(N)=O)C1)c1ccc2ncnc(Nc3ccc4c(cnn4Cc4cccc(F)c4)c3)c2c1: 14
2. CC#C/C(=N\OC[C@@H]1CNCCO1)c1ccc2ncnc(Nc3ccc(OCc4ccccn4)c(Cl)c3)c2c1: 8
3. CC#C/C(=N\OC[C@H]1CCCN1C)c1ccc2ncnc(Nc3ccc(OCc4ccccn4)c(Cl)c3)c2c1: 3.8
4. CNCCO/N=C(\C#CCOC)c1ccc2ncnc(Nc3ccc(S(=O)(=O)c4ccccc4)cc3)c2c1: 28
5. CN(/N=C/c1ccc2ncnc(Nc3ccc(OCc4cccc(F)c4)c(Cl)c3)c2c1)c1ccccc1: 426
6. CC#C/C(=N\OC[C@H]1CCCN1)c1ccc2ncnc(Nc3ccc(OCc4ccccn4)c(Cl)c3)c2c1: 4.1
7. CC#C/C(=N\OCCNCCNC(C)=O)c1ccc2ncnc(Nc3ccc4c(cnn4Cc4cccc(F)c4)c3)c2c1: 10
8. CC#C/C(=N\OCC(=O)NCCO)c1ccc2ncnc(Nc3ccc(OCc4cccc(F)c4)c(Cl)c3)c2c1: 122
9. CC#C/C(=N\OCCNC(C)COC)c1ccc2ncnc(Nc3ccc(OCc4ccccn4)c(Cl)c3)c2c1 (stereo not shown): 8.1
10. CC#C/C(=N\OCCNCCS(C)(=O)=O)c1ccc2ncnc(Nc3ccc(OCc4ccccn4)c(Cl)c3)c2c1: 14

* * *

biological target: HER2 (Homo sapiens); construct: purchased Carna Biosciences, Inc; host or cells: insect cell expression system; test: Enzyme inhibitory activity on HER2 (time resolution fluorescence, biotinylated poly-Glu-Tyr substrate); assay type: biochemical; conditions: HER2 purified from insect cell expression system; ATP solution 290 μM; room temperature, 60 minutes
measurement_label: log10 IC50 (log10 of the value in nM)

1. CC#C/C(=N\OC[C@H]1CNCCO1)c1ccc2ncnc(Nc3ccc(OCc4cccc(F)c4)c(Cl)c3)c2c1: 1.84
2. CNCCO/N=C(\C#CC1CC1)c1ccc2ncnc(Nc3ccc(OCc4cccc(F)c4)c(Cl)c3)c2c1: 1.46
3. CC#C/C(=N\OCCNC1CCN(C(C)=O)CC1)c1ccc2ncnc(Nc3ccc(OCc4cccc(F)c4)c(Cl)c3)c2c1: 1.38
4. CC#C/C(=N\OC[C@H]1CNCCN1)c1ccc2ncnc(Nc3ccc(OCc4cccc(F)c4)c(Cl)c3)c2c1: 1.15
5. CC#CC(=NOCC1CN(C)CCN1C)c1ccc2ncnc(Nc3ccc(OCc4cccc(F)c4)c(Cl)c3)c2c1 (stereo not shown): 1.75
6. CC#C/C(=N\OC[C@@H]1COCCN1CC#N)c1ccc2ncnc(Nc3ccc(OCc4cccc(F)c4)c(Cl)c3)c2c1: 2.31
7. CC#C/C(=N\OCCN1CCC(O)CC1)c1ccc2ncnc(Nc3ccc(OCc4cccc(F)c4)c(Cl)c3)c2c1: 1.34

* * *

target: HER2 (Homo sapiens); construct: purchased Carna Biosciences, Inc; host or cells: insect cell expression system; assay: Enzyme inhibitory activity on HER2 (time resolution fluorescence, biotinylated poly-Glu-Tyr substrate); assay type: biochemical; conditions: HER2 purified from insect cell expression system; ATP solution 290 μM; room temperature, 60 minutes
Parameter log10 IC50: see the listing below.
measurement_label: log10 IC50 (log10 of the value in nM)

1. CC/C(=N\OCCNC)c1ccc2ncnc(Nc3ccc(OCc4cccc(F)c4)c(Cl)c3)c2c1: 1.49
2. CC#C/C(=N\OC[C@@H]1C[C@H](O)CN1)c1ccc2ncnc(Nc3ccc(OCc4cccc(F)c4)c(Cl)c3)c2c1: 0.88
3. CC#C/C(=N\OCCNC1CCCCC1)c1ccc2ncnc(Nc3ccc(OCc4cccc(F)c4)c(Cl)c3)c2c1: 2.22
4. CC#C/C(=N\OC[C@H]1CS(=O)(=O)CCN1)c1ccc2ncnc(Nc3ccc(OCc4cccc(F)c4)c(Cl)c3)c2c1: 2.35
5. CC#CC(=NOCC1NC(=O)OC1C)c1ccc2ncnc(Nc3ccc(OCc4cccc(F)c4)c(Cl)c3)c2c1 (stereo not drawn): 2.39
6. CC#C/C(=N\OC[C@@H]1C[C@@H](O)CN1)c1ccc2ncnc(Nc3ccc(OCc4cccc(F)c4)c(Cl)c3)c2c1: 1.25
7. CC#C/C(=N\OCCNC[C@@H]1CCCO1)c1ccc2ncnc(Nc3ccc(OCc4cccc(F)c4)c(Cl)c3)c2c1: 1.49
8. CC#C/C(=N\OC[C@H]1CN(C)CCN1)c1ccc2ncnc(Nc3ccc(OCc4cccc(F)c4)c(Cl)c3)c2c1: 1.08
9. CC#C/C(=N\OCCNCCCN1CCCC1=O)c1ccc2ncnc(Nc3ccc(OCc4cccc(F)c4)c(Cl)c3)c2c1: 1.18
10. CC#C/C(=N\OC[C@@H]1NCCO[C@H]1C)c1ccc2ncnc(Nc3ccc(OCc4cccc(F)c4)c(Cl)c3)c2c1: 2.17
11. C=CC(=O)N1CCN(CCON=Cc2ccc3ncnc(Nc4ccc(OCc5cccc(F)c5)c(Cl)c4)c3c2)CC1: 2.18
12. CC#C/C(=N\OC[C@@H]1CCCN1CC#N)c1ccc2ncnc(Nc3ccc(OCc4cccc(F)c4)c(Cl)c3)c2c1: 2.30
13. CC/C(=N\OCCNCCS(C)(=O)=O)c1ccc2ncnc(Nc3ccc(OCc4cccc(F)c4)c(Cl)c3)c2c1: 2.06
14. CC#C/C(=N\OCCNC1CCOCC1)c1ccc2ncnc(Nc3ccc(OCc4cccc(F)c4)c(Cl)c3)c2c1: 1.83
15. CC#C/C(=N\O[C@H]1CN[C@H](CO)C1)c1ccc2ncnc(Nc3ccc(OCc4cccc(F)c4)c(Cl)c3)c2c1: 1.56

* * *

tested on: BT-474; assay: In vitro cell proliferation inhibition, WST assay; format: cell-based, human; conditions: Homo sapiens, BT-474, 72 h, BT-474 cells, cultured for 3 days, read-out: BT-474 (nM) proliferation inhibitory activity (IC50 value)
Listing: IC50 of selected compounds
measurement_label: IC50 (nM)

1. CC#C/C(=N\OCCNC1CC1)c1ccc2ncnc(Nc3ccc(OCc4ccccn4)c(Cl)c3)c2c1 [VIII-136]: 53
2. CC#C/C(=N\OC[C@H]1CNCCO1)c1ccc2ncnc(Nc3ccc(OCc4ccccn4)c(Cl)c3)c2c1 [VIII-173]: 40
3. CC#C/C(=N\OCCNCCNC(C)=O)c1ccc2ncnc(Nc3ccc(OCc4ccccn4)c(Cl)c3)c2c1 [VIII-134]: 14
4. CC#C/C(=N\OCCNC[C@@H]1COC(=O)N1)c1ccc2ncnc(Nc3ccc4c(cnn4Cc4cccc(F)c4)c3)c2c1 [VIII-191]: 33
5. CC#C/C(=N\OC[C@H]1CN(CCO)CCN1)c1ccc2ncnc(Nc3ccc(OCc4ccccn4)c(Cl)c3)c2c1 [VIII-174]: 14
6. CC#C/C(=N\OCCNC1CCOCC1)c1ccc2ncnc(Nc3ccc(OCc4ccccn4)c(Cl)c3)c2c1 [VIII-141]: 46
7. CC#C/C(=N\OCCNC[C@H]1CCCO1)c1ccc2ncnc(Nc3ccc4c(cnn4Cc4cccc(F)c4)c3)c2c1 [VIII-188]: 40

* * *

target: HER2 (Homo sapiens, UniProt P04626); construct: purchased Carna Biosciences, Inc; host or cells: insect cell expression system; experiment: Enzyme inhibitory activity on HER2 (time resolution fluorescence, biotinylated poly-Glu-Tyr substrate); type: biochemical; settings: enzyme reaction at room temperature for 60 minutes
Sequence (P04626 23-1255): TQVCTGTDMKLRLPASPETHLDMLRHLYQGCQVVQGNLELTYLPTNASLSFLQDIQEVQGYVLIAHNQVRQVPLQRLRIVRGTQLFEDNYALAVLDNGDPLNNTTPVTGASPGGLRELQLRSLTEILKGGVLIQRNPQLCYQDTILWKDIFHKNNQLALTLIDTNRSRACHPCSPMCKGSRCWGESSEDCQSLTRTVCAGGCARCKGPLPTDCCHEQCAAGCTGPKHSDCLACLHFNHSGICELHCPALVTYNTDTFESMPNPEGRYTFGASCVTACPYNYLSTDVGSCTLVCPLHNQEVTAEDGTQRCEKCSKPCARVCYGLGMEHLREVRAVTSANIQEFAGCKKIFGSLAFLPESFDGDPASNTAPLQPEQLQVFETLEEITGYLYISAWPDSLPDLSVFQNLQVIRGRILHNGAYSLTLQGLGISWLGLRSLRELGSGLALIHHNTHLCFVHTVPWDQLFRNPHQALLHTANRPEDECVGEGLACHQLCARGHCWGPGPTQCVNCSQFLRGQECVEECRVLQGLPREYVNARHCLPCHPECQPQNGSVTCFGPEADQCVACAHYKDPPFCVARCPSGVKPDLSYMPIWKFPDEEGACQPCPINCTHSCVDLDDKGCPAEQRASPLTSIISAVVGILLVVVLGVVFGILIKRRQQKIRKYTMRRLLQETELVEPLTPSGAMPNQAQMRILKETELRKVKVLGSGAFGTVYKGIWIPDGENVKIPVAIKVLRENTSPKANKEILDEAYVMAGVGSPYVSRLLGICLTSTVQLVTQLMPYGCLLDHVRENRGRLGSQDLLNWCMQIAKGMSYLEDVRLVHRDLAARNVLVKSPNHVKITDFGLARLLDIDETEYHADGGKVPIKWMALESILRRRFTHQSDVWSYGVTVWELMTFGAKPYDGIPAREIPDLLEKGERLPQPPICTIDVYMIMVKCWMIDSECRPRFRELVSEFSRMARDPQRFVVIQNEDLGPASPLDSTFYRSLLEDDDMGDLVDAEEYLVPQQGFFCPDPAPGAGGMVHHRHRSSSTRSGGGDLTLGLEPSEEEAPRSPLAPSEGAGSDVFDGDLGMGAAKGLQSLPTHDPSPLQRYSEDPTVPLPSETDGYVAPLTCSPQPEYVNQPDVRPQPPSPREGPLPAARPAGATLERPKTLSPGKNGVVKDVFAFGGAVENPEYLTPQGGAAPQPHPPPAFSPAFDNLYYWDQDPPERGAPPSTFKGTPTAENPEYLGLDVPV
Binarize IC50 at 8 nM; below is Yes, at or above is No.

1. CC#C/C(=N\OCCN1CCS(=O)(=O)CC1)c1ccc2ncnc(Nc3ccc(OCc4ccccn4)c(Cl)c3)c2c1: No
2. CC#C/C(=N\OCCN1CCN(C)CC1)c1ccc2ncnc(Nc3ccc(OCc4ccccn4)c(Cl)c3)c2c1: Yes
3. CC#C/C(=N\OCCNC)c1ccc2ncnc(Nc3ccc(COc4cccc(F)c4)c(Cl)c3)c2c1: No
4. CC#C/C(=N\OCCN1CCCC1)c1ccc2ncnc(Nc3ccc(OCc4ccccn4)c(Cl)c3)c2c1: Yes
5. CC#C/C(=N\OCCNC(C)COC)c1ccc2ncnc(Nc3ccc(OCc4ccccn4)c(Cl)c3)c2c1 (stereo not shown): Yes
6. CNCCO/N=C(\C#CCOC)c1ccc2ncnc(Nc3ccc(S(=O)(=O)c4ccccc4)cc3)c2c1: No
7. CC#C/C(=N\OC[C@H]1CCCN1)c1ccc2ncnc(Nc3ccc(OCc4ccccn4)c(Cl)c3)c2c1: Yes
8. COC[C@@H]1CCCN1/N=C/c1ccc2ncnc(Nc3ccc(OCc4cccc(F)c4)c(Cl)c3)c2c1: No
9. CC#C/C(=N\OCC1COCCN1)c1ccc2ncnc(Nc3ccc(COc4cccc(F)c4)c(Cl)c3)c2c1 (stereo not shown) [VIII-221]: No
10. CC#C/C(=N\OCCNC[C@H]1CCC(=O)N1)c1ccc2ncnc(Nc3ccc4c(cnn4Cc4cccc(F)c4)c3)c2c1: No
11. Fc1cccc(COc2ccc(Nc3ncnc4ccc(C=NN5CCCC5)cc34)cc2Cl)c1: No
12. COCC#C/C(=N\OCCN1CCCC1)c1ccc2ncnc(Nc3ccc(OCc4cccc(F)c4)c(Cl)c3)c2c1: No
13. CC#C/C(=N\OC[C@@H](COC)NC)c1ccc2ncnc(Nc3ccc(OCc4ccccn4)c(Cl)c3)c2c1: Yes
14. CC#C/C(=N\OCCNC[C@@H]1CCCO1)c1ccc2ncnc(Nc3ccc4c(cnn4Cc4cccc(F)c4)c3)c2c1: No
